Data origin: PubChem BioAssay AID1745847

Assay: CMV-Luciferase Counterscreen for Inhibitors of ATXN expression; note: nearly all actives have a fitted effect of over 55% in size
Conditions: HEK-293 CMV-luciferase reporter, luminescence, 24 h; series mostly up to 57.5 µM
Among all 2,100 compounds or so, about 670 (32%) were called active. About 50% were inconclusive and are not listed. Calls come from the whole dose curve; as a rule, active = well fitted inhibition curve with a large enough effect; inconclusive = small, poorly fitted or top-dose-only effect; inactive = no such curve, though single readings can be large or run the other way. The list shows a part of the results.
Select the matching outcome among active, inactive

Answered examples (6):
{"columns": ["Compound", "Label value"],
 "data": [
  ["Cc1cc(Nc2cccc([N+](=O)[O-])c2)n2c(nc3ccccc32)c1C#N", "active"],
  ["O=C(NN=Cc1ccccc1O)c1cccc([N+](=O)[O-])c1", "active"],
  ["COc1cccc(/C=N/NC(=O)c2cc(-c3ccccn3)nc3ccccc23)c1O", "active"],
  ["CCc1ccc(-n2cc(-c3ccc(F)cc3)[n+]3c2SCCC3)cc1", "active"],
  ["Cc1ccc(-n2ncc(C(=O)Nc3ccc(Cl)cc3)c2C2CCNCC2)cc1C", "inactive"],
  ["Cc1nnc(SCC(N)=O)n1CC1CCCO1 (centres undefined)", "inactive"]
]}

Called result for COc1ccc(/C=C/C(=O)c2cc3cccc(OC)c3oc2=O)cc1 inactive

Called result for COc1ccc(N2CCN(c3ccnc4cc(Cl)ccc34)CC2)cc1 active

Called result for CCCCCc1ccc(OCCCC[n+]2cccc(C)c2)c(CCCCC)c1 active

Called result for CCOc1ccc(/C=C/[N+](=O)[O-])c2ccccc12 active

Called result for O=S(=O)(c1ccccc1)N1CCN(c2ccnc3cc(Cl)ccc23)CC1 active

Called result for O=C(N/N=C/c1c(O)n(Cc2ccccc2)c(=O)c2ccccc12)c1cccnc1 active

Called result for O=C(Nc1nc2cc(Cl)ccc2s1)C1CCCN(S(=O)(=O)c2cccc3cccnc23)C1 (centres undefined) active

* * *

Assay: CMV-Luciferase Counterscreen for Inhibitors of ATXN expression; note: nearly all actives have a fitted effect of over 55% in size
Conditions: HEK-293 CMV-luciferase reporter, luminescence, 24 h; series mostly up to 57.5 µM
The campaign covered roughly 2,100 compounds. About 670 (32%) were called active. Roughly 50% stayed inconclusive and do not appear here. The call rests on the fitted dose curve; in most records, active means well fitted inhibition curve with a large enough effect; inconclusive means small, poorly fitted or top-dose-only effect; inactive means no such curve, though single readings can be large or run the other way. The list shows a part of the results.
Select the matching outcome among yes for active, no for inactive

Answered examples (8):
{"columns": ["Compound", "Label value"],
 "data": [
  ["Cc1cc[n+](C(C)C(=O)c2ccc(-c3ccccc3)cc2)cc1 (stereo not given)", "yes"],
  ["NNC(=O)/C(=N/Nc1ccccc1)S(=O)(=O)c1ccc(Cl)cc1", "yes"],
  ["Cc1ccccc1C(=O)N1CCN(c2ccc(NC(=O)c3ccc4c(c3)OCCO4)cc2)CC1", "yes"],
  ["CN(C)CCOc1ccc(-c2c(-c3ccccc3)sc3ccccc23)cc1", "yes"],
  ["CC1CC(C)C[N+](=C2C=C(N3CCCC3)CC(C)(C)C2)C1 (stereo not given)", "yes"],
  ["CC(=O)NC(c1cccs1)c1cc(Br)c2cccnc2c1O (stereo not given)", "yes"],
  ["CCn1c2ccccc2c2cc(NC(=O)COC(=O)c3cccc(S(=O)(=O)NC)c3)ccc21", "no"],
  ["Cn1c(=O)c2cc(NC(=O)Nc3cccnc3)ccc2n1Cc1ccc(Cl)cc1", "no"]
]}

Called result for O=C(Nc1nccs1)c1cccc(N2C(=O)c3cccc4c([N+](=O)[O-])ccc(c34)C2=O)c1 no

Called result for CC(=O)NC(c1cccs1)c1cc([N+](=O)[O-])c2cccnc2c1O (stereo not given) yes
